assayed_target: IL-1R (Homo sapiens)
Sequence (P14778 18-569): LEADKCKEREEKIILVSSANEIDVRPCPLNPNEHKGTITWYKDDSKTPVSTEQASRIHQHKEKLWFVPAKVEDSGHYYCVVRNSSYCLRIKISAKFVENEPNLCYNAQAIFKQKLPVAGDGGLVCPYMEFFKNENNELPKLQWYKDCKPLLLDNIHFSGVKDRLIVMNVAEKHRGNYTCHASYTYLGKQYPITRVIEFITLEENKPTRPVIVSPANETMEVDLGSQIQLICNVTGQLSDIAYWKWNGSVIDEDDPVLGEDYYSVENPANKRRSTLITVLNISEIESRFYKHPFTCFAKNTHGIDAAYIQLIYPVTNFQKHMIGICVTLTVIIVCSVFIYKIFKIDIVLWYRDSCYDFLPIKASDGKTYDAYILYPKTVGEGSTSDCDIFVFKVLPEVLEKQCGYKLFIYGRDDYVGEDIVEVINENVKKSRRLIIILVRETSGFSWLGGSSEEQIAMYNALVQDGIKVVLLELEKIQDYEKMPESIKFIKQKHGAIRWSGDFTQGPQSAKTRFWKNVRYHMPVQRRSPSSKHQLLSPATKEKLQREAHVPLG
protocol_summary: IL-1R binding assay
pIC50: −log10 of the molar value.
readout: pIC50

Return value of pIC50 for input NH2-YEWTPGYYQJY-NH2 [AF12304] , no commentary.
~8.70

The measured values listed here are drawn from patent US6309842A.
